test system: Tyrosine-protein kinase ABL1 (Homo sapiens), P00519 [Y253F]; settings: at 0.1 µM
Kind request: treat 5% as inclusive, so inhibition at 5% or higher is Yes, anything lower is No.

# check: inhibition of NC(=O)c1sc(-n2cnc3ccccc32)cc1OCc1ccccc1Br is greater than or equal to 5%
No

hey, is inhibition for this one >= 5%? Cc1ccc2c(-c3ccnc(Nc4ccc5c(c4)OCCO5)n3)c(-c3ccc(C(F)(F)F)cc3)nn2n1
No

State whether the measured inhibition reaches 5%, counting equality as reaching it, for CCS(=O)(=O)c1ccc(OC)c(Nc2ncc(-c3cccc(OC)c3)o2)c1
Yes

Threshold query (inhibition >= 5%) on COc1cc2ncnc(Nc3ccc(C)c(O)c3)c2cc1OC
Yes

----------
tested on: Tyrosine-protein kinase ABL1 (Homo sapiens), P00519 [M351T]; conditions: at 1 µM
// classify(record): look up inhibition in ranges lower level = under 3%, middle level = from 3% up to 40%, upper level = 40% and over

Entry COc1ccc(-c2nn3ncccc3c2-c2ccnc(Nc3cccc(C(F)(F)F)c3)n2)cc1 belongs to which category?
middle level

Which category does the recorded inhibition put CC(C)c1ccc2c(c1)NC(=O)/C2=N/Nc1ccc(S(N)(=O)=O)cc1 in?
middle level

Sort into band: N#Cc1cccc(Nc2nccc(-c3cnn4ncccc34)n2)c1
upper level

Lab note: which band did Nc1ccc(C#Cc2cncnc2Nc2ccc(OCc3cccc(F)c3)c(Cl)c2)cc1 land in?
lower level

The entry to classify is O=S(=O)(CCOCc1ccc(-c2ccc3ncnc(Nc4ccc(OCc5cccc(F)c5)c(Cl)c4)c3c2)o1)c1ccccc1 ; which class holds it?
lower level

Form field 'band' for Cc1ccc2c(-c3ccnc(Nc4cccc(C(F)(F)F)c4)n3)c(-c3ccccc3)nn2n1
upper level

Which class does NS(=O)(=O)c1ccc(Nc2cc(-c3cccc(O)c3)n[nH]2)cc1 fall in?
middle level

Hey, which category is ON=C1CCc2cc(-c3nc(C4CCNCC4)[nH]c3-c3ccncc3)ccc21 in, do you know?
lower level

Which category does the recorded inhibition put COC(=O)c1cncc(/C=C/c2c(C)cc(O)cc2C)c1 in?
upper level

GET /class?item= Cc1ccc(Nc2ccnc(Nc3cccc(C(N)=O)c3)n2)cc1O
upper level

Form: Item = Cc1ccc2c(c1)/C(=N/Nc1ccc(S(N)(=O)=O)cc1)C(=O)N2 ; Class = ?
middle level

Hi there! Could you help me figure out the category for CS(=O)(=O)CCNCc1nc(-c2ccc3ncnc(Nc4ccc(OCc5cccc(C(F)(F)F)c5)cc4)c3c2)cs1 please?
lower level

Could you tell me which band NC(=O)c1sc(-n2cnc3ccccc32)cc1OCc1ccccc1Br belongs to?
middle level

Which class does COc1cc2ncnc(Nc3ccc(C)c(O)c3)c2cc1OC fall in?
upper level

Class label required: Oc1cccc(-c2nc(-c3ccccc3)[nH]c2-c2ccncc2)c1
middle level

Where would COc1cc2ncnc(Nc3ccc4c(cnn4Cc4ccccc4)c3)c2cc1OC land among the classes by reported inhibition?
middle level

For CCOc1nccc2c1nc(-c1nonc1N)n2CC , which inhibition bin applies?
middle level

----------
molecular target: Tyrosine-protein kinase ABL1 (Homo sapiens) (UniProt P00519); conditions: at 1 µM
Field: inhibition. Provide a value for each of the molecules that follow.

Provide only the value of recorded inhibition for CCS(=O)(=O)c1ccc(OC)c(Nc2nccc(N(C)c3ccc4c(C)n[nH]c4c3)n2)c1
78.5%

Kindly indicate its recorded inhibition. Item: Cc1nc(-c2ccccc2)n2nc(NCCCN3CCOCC3)ncc12
5.41%

Name the recorded inhibition of the molecule listed here: [O-][S+]1CCN(Cc2ccc(-c3ccc4ncnc(Nc5ccc(OCc6ccccc6)c(Cl)c5)c4c3)o2)CC1
4.26%

Please report inhibition for the following molecule: COc1cccc(-n2ncc3c(N/N=C/c4ccc(S(C)(=O)=O)cc4)ncnc32)c1
73%

Give the reported inhibition for this molecule. C[C@@H](Oc1cc(-n2cnc3ccc(OCC4CCN(C)CC4)cc32)sc1C(N)=O)c1ccccc1C(F)(F)F
2.7%

Report inhibition, nothing else, for this molecule: O=C1Nc2ccccc2/C1=C/Nc1ccc2[nH]c(=O)[nH]c2c1
25.8%

Identify measured inhibition corresponding to NS(=O)(=O)c1ccc(Nc2cc(-c3cccc(O)c3)n[nH]2)cc1
11.4%

Every entry's value here was drawn from ChEMBL document CHEMBL1961873.
